Measured Target: BCLXL (Homo sapiens, UniProt Q07817, V10N/V9A)
Sequence (Q07817 with tags, fused parts or gaps V9A/V10N): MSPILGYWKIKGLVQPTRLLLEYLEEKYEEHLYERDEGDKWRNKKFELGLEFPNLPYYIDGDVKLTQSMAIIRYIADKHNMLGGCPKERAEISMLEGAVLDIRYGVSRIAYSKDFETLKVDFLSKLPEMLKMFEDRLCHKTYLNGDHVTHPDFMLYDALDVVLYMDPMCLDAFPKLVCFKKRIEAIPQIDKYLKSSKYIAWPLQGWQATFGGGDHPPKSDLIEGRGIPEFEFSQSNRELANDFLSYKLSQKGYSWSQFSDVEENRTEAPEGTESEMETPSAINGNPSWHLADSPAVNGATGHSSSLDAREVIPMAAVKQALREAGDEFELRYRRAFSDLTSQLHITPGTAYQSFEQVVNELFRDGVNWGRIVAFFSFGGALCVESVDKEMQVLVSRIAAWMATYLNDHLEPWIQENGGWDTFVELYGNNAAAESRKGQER
Protocol: Fluorescence polarisation assay (PUMA-based probe displacement); note: 20 nM protein, 10 nM fluorescent probe
Overview of recorded Ki for various compounds
Provide the reading as a plain figure in nM.

Completed entries (count: 5):
For reference, reported Ki for Cc1c(Nc2nc(C(=O)O)c(CCCOc3ccccc3F)s2)nnc(Nc2nc3ccccc3s2)c1C [Example 13] stands at 3.8

For reference, reported Ki for CCN(CC)CCCN(c1cc(C)c(Nc2nc3ccccc3s2)nn1)c1nc(C(=O)O)cs1 [Example 46] stands at 190

For reference, reported Ki for Cc1cc(N(C)c2nc(C(=O)O)c(N3CCCCC3)s2)nnc1Nc1nc2ccccc2s1 [Example 80] stands at 80

For reference, reported Ki for Cc1cc(N(C)c2nc(C(=O)O)c(C3CN(CC(C)C)C3)s2)nnc1Nc1nc2ccccc2s1 [Example 156] stands at 890

For reference, reported Ki for Cc1cc(N(C)c2nc(C(=O)O)c(N3CC(O)C3)s2)nnc1Nc1nc2ccccc2s1 [Example 72] stands at 160

---
For reference, reported Ki for CCNC(=O)N1CC(c2sc(N(C)c3cc(C)c(Nc4nc5ccccc5s4)nn3)nc2C(=O)O)C1 [Example 160] stands at 220

For reference, reported Ki for Cc1cc(N(C)c2nc(C(=O)O)c(C3CCCCC3)s2)nnc1Nc1nc2ccccc2s1 [Example 102] stands at 220

For reference, reported Ki for COCCCC1(Cn2ncc(-c3sc(N(C)c4cc(C)c(Nc5nc6ccccc6s5)nn4)nc3C(=O)O)c2C)CCCCCCC1 [Example 43] stands at 19

For reference, reported Ki for COCCCC1(Cn2ncc(-c3sc(Nc4nnc(Nc5nc6ccccc6s5)c(C)c4C)nc3C(=O)O)c2C)CCCCC1 [Example 36] stands at 28

For reference, reported Ki for Cc1c(Nc2nc(C(=O)O)c(CCCOc3ccccc3)s2)nnc(Nc2nc3ccccc3s2)c1C [Example 9] stands at 4

For reference, reported Ki for Cc1cc(N(C)c2nc(C(=O)O)c(N3CCC(Oc4ccccc4)CC3)s2)nnc1Nc1nc2ccccc2s1 [Example 81] stands at 16
